- Test system: K562 CRISPRi cells
- protocolText: Perturb-seq pooled growth measurement (sgRNA counts, growth phenotype γ, relative activity)
- Format: cell-based, human
- setupConditions: sequencing read counts; 5 days of growth (day seven after transduction)
- Description: Finally, we sought to use intermediate-activity sgRNAs to explore relationships between expression levels of various genes and the resulting cellular phenotypes. […] In addition to the single-cell transcriptomes, we measured bulk growth phenotypes conferred by sgRNAs in these cells. […]
assayEndpoint: Perturb-seq pooled growth sgRNA counts, d5
Give bare numbers.

These recorded examples may help you get a feel for the data.
substance: non-targeting_00089: non-targeting negative control sgRNA, GGGGTGAGGGTCCAATTCGG, SEQ ID NO: 164 (listed as DNA, chemistry not fully specified) [reference compound]
observedValue: 27748
//
substance: MTOR_+_11322547.23-P1P2_07: sgRNA targeting MTOR, GGGCAGGGGGTCTGAAGCGG, SEQ ID NO: 147 (listed as DNA, chemistry not fully specified)
observedValue: 3183
//
substance: CAD_+_27440280.23-P1P2_03: sgRNA targeting CAD, GGCTGGTGAGAAGCCGGGCG, SEQ ID NO: 102 (listed as DNA, chemistry not fully specified)
observedValue: 2087
//
substance: ATP5E_−_57607036.23-P1P2_04: sgRNA targeting ATP5E, GGTGTCCAGGAGCACTCTGT, SEQ ID NO: 154 (listed as DNA, chemistry not fully specified)
observedValue: 13256
//
substance: SEC61A1_−_127771295.23-P1_02: sgRNA targeting SEC61A1, GGCGCTGACGTGTCTCTCGG, SEQ ID NO: 84 (listed as DNA, chemistry not fully specified)
observedValue: 4030

Provide Perturb-seq pooled growth sgRNA counts, d5 for all items below, preserving their order.
1. RPS15_−_1438413.23-P1P2_12: sgRNA targeting RPS15, GACCAAAGCGATCTCTTGTG, SEQ ID NO: 63 (listed as DNA, chemistry not fully specified)
2. POLR1D_+_28196016.23-P1_07: sgRNA targeting POLR1D, GGGAAGCAAGGAGCGACCGA, SEQ ID NO: 77 (listed as DNA, chemistry not fully specified)
3. GINS1_−_25388381.23-P1P2_03: sgRNA targeting GINS1, GGACTATAACGAAAGGAGTG, SEQ ID NO: 96 (listed as DNA, chemistry not fully specified)
4. RPL9_+_39460483.23-P1P2_01: sgRNA targeting RPL9, GGATGATTCTGTGCTCGTGG, SEQ ID NO: 51 (listed as DNA, chemistry not fully specified)
5. GINS1_−_25388381.23-P1P2_00: sgRNA targeting GINS1, GGACTAGAACGAAAGGAGTG, SEQ ID NO: 93 (listed as DNA, chemistry not fully specified)

A:
1. 12257
2. 16283
3. 2982
4. 1108
5. 547
